system-tested: Human plasma kallikrein (Homo sapiens, UniProt P03952)
Construct: yields a heavy chain (371 amino acids) and a light chain (248 amino acids)
Sequence (P03952 391-638 limits assumed): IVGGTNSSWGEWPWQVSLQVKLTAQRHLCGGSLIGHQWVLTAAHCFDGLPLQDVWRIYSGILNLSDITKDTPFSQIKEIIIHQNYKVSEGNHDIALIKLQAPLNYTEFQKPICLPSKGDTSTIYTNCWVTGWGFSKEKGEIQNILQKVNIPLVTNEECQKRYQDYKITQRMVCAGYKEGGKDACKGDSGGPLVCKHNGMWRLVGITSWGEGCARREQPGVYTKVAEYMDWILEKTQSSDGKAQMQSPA
Sequence (P03952 20-390 partner limits assumed): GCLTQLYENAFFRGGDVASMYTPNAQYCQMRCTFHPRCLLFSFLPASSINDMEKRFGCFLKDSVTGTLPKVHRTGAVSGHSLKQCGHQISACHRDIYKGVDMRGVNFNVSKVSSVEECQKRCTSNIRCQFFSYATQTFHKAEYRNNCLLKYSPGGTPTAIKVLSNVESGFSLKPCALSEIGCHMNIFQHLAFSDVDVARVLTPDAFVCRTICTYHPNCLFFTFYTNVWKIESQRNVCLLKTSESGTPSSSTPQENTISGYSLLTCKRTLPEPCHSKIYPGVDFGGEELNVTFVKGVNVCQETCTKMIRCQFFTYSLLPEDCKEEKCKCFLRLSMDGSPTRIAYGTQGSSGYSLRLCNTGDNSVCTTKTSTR
protocol-summary: Plasma Kallikrein Assay
protocol-conditions: purified Human plasma kallikrein 0.5 nM, substrate Acetyl-K-P-R-AFC, pH 7.4
assay-readout: log10 IC50 (log10 of the value in nM)
Answers are given as log10 of IC50 in nM.

CC(c1cnc(N2CC[C@H]2[C@@H](C)N[C@@H]2CCC[C@H]2O)nc1)n1cc(NC(=O)c2cncc(-c3c(C(F)F)ccc(Cl)c3F)n2)cn1 (some centres unmarked)	0.91

The compound identified as CC1C2CC2CN1c1ncc(C(CO)n2cc(NC(=O)c3cncc(-c4c(C(F)F)ccc(Cl)c4F)n3)cn2)cn1 (single isomer, unassigned) [Example 51] registered its log10 IC50 at 3.58

The measured log10 IC50 associated with Cc1ncc(-c2c(C(F)F)ccc(Cl)c2F)nc1C(=O)Nc1cnn(C(CO)c2cnc(N3CCC3)nc2)c1 (single isomer, unassigned) [Example 46] reads 0.57

So for CC(c1cnc(N2CC[C@H]2[C@@H](C)N[C@H](C)C(C)(C)O)nc1)n1cc(NC(=O)c2cncc(-c3c(C(F)F)ccc(Cl)c3F)n2)cn1 (some centres unmarked) , the logged log10 IC50 turned out to be 1.33

Measured log10 IC50 of O=C(O)c1ncc(-c2c(C(F)F)ccc(Cl)c2F)nc1C(=O)Nc1cnn(Cc2cnc(N3CCC3)nc2)c1 : 1.33

Entry O=C(Nc1cnn(C(CO)c2cnc(N3CC4CC4C3)nc2)c1)c1cncc(-c2c(C(F)F)ccc(Cl)c2F)n1 (single isomer, unassigned) [Example 44] — recorded log10 IC50 = 1.01

GET /value?item= C[C@@H](c1cnc(N2C[C@@H]3C[C@@H]3[C@@H]2CO)nc1)n1cc(NC(=O)c2cncc(-c3c(C(F)F)ccc(Cl)c3F)n2)cn1 (single isomer, unassigned) [Example 76] &field=log10 IC50 returns 0.73

The recorded log10 IC50 for CC(c1cnc(N2C[C@H]3C[C@H]3[C@H]2C(N)=O)nc1)n1cc(NC(=O)c2cncc(-c3c(C(F)F)ccc(Cl)c3F)n2)cn1 (relative stereo) is 1.04

###

Recorded IC50 values for a group of compounds are listed next.
system-tested: Human plasma kallikrein (Homo sapiens)
Construct: yields a heavy chain (371 amino acids) and a light chain (248 amino acids)
protocol-summary: Plasma Kallikrein Assay
protocol-conditions: purified Human plasma kallikrein 0.5 nM, substrate Acetyl-K-P-R-AFC, pH 7.4
Description: The effectiveness of a compound of the present invention as an inhibitor of plasma kallikrein can be determined using a relevant purified serine protease, and an appropriate synthetic substrate. The rate of hydrolysis of the chromogenic or fluorogenic substrate by the relevant serine protease was measured both in the absence and presence of compounds of the present invention. […] A decrease in the rate of fluorescence change in the presence of inhibitor is indicative of enzyme inhibition. […]
Respond with the bare value in nM.

Guide cases for IC50, answers given:
CC(c1cnc(N2CC[C@H]2[C@@H](C)N2CC[C@H](O)C2)nc1)n1cc(NC(=O)c2cncc(-c3c(C(F)F)ccc(Cl)c3F)n2)cn1 (stereo partly drawn)	1.4
O=C(Nc1cnn(Cc2ccc(N3CCC(O)C3)nc2)c1)c1cncc(-c2c(C(F)F)ccc(Cl)c2F)n1 (stereo not drawn)	27.3
O=C(Nc1cnn(Cc2cnc(N3CCCC3Cn3ccnc3)nc2)c1)c1cncc(-c2c(C(F)F)ccc(Cl)c2F)n1 (stereo not drawn)	45.9
N#Cc1ccc(Cl)c(F)c1-c1cncc(C(=O)Nc2cnn(Cc3ccc(N4CCC4)nc3)c2)n1	17.1
O=C(Nc1cnn(Cc2cnc(N3C[C@H]4C[C@H]4[C@H]3CN3CC(O)(C(F)(F)F)C3)nc2)c1)c1cncc(-c2c(C(F)F)ccc(Cl)c2F)n1	1.8

Reported IC50 ( CC(c1cnc(N2CC[C@H]2[C@@H](C)N2CC(C(C)(C)O)C2)nc1)n1cc(NC(=O)c2cncc(-c3c(C(F)F)ccc(Cl)c3F)n2)cn1 (stereo partly drawn) ) = 1.1

Looking up CC(c1cnc(N2CC3CC3C2)nc1)n1cc(NC(=O)c2cncc(-c3c(C(F)F)ccc(Cl)c3F)n2)cn1 (single isomer, unassigned) [Example 32] , I found its IC50 recorded as 8.1

Note to self: IC50 recorded for O=C(Nc1cnn(Cc2cnc(N3CC4CC4C3CO)nc2)c1)c1cncc(-c2c(C(F)F)ccc(Cl)c2F)n1 (single isomer, unassigned) [Example 77] was 5.6

// IC50 lookup, compound = C[C@H](O)c1ncc(-c2c(C(F)F)ccc(Cl)c2F)nc1C(=O)Nc1cnn(Cc2cnc(N3CCC3)nc2)c1 (single isomer, unassigned) , result: 9.4

Where do the numbers come from? From patent US20230416227A1.
